Target: T1, Ebola virus GP, Cote d'Ivoire strain, on VLPs (Ebola virus, Cote d'Ivoire strain, UniProt Q66810 33-676)
T1 construct: also called Cote d'Ivoire FJ217162; Ivory Coast
T1 sequence: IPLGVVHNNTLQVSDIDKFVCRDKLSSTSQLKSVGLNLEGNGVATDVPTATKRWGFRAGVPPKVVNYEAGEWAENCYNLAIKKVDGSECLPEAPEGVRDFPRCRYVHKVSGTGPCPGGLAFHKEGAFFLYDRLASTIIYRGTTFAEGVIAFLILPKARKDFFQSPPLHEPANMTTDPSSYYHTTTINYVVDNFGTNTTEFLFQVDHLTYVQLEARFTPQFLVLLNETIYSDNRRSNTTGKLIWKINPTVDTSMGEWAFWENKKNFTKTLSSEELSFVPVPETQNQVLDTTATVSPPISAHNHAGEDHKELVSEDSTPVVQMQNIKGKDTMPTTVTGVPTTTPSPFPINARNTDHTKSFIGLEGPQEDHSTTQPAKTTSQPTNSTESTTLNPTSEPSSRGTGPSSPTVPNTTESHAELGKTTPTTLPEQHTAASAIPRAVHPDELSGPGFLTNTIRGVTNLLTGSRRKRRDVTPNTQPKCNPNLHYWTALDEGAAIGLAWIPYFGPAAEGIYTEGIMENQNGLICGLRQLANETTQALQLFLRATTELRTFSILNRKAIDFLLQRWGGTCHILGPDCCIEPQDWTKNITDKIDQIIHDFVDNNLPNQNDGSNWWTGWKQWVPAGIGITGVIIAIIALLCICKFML
Assay: MSD, VLPs coated
Measured property: binding result

H1H17162P (antibody, V domains shown) VH: EVQLVESGGGLVQPGGSLRLSCAASEFTFSSYAMSWVRQAPGKGLEWVSAISGSSGSTYYADSVKGRFTISRDNSKKTLYLQMNSLRVEDTAVYYCAKGGYPHSFDIWGHGTMVTVSS VL: DIQMTQSPSSLSASVGDRVTITCRASQSISSFLNWYQQKPGKAPKLLIYAASSLQSGVPSRFSGSGSGTDFTLTISSLQPEDFATYYCQQSYSSITFGQGTRLEIK : no binding
H1H17151P (antibody, V domains shown) VH: EVQLVESGGGLVQPGGSLRLSCAASGFTFSSYAMNWVRQAPGKGLEWVSVISGSGGWRNYADSVKGRITISRDNSKNTLYLQMNNLRAEDTAVYYCAKDRGATFGVVILGPPYYGMDVWGQGTTVTVSS VL: DIQMTQSPSSLSASVRDRVTITCRASQSISTYLNWYQQKPGKAPKLLIYAASSLQSGVPSRFSGSGSGTGFTLTISSLQPEDFATYYCQQSYSIPYTFGQGTKLEIK : no binding
H1M17354N (antibody, V domains shown, also called HCAF05C08-22) VH: QVQLVQSGAEVKKPGASVKVSCKASGYTFTSYYMHWVRQAPGQGLEWLGIINPSGGSTSYAQKFQGRVTMTRDTSTSTVYMELSSLRSEDTAVYYCARETGEAGEVFNYWGQGTQVTVSS VL: DIQMTQSPSSLSASVGDRVTITCRASQIISRYLNWYQHKPGKAPKVLIYAASTLQSGVPSRFSGSGSGTDFTLTISSLQPEDFATYYCQQSYSTPPITFGQGTRLEIK : no binding
H1H17199P (antibody, V domains shown) VH: EVQLVESGGGLVQPGGSLRLSCAASGFTFSDHYMVWVRQAPGKGLEWVGRTRNKANSYSTEYAASVKGRFTISRDDSKKSLYLQMNSLKTEDTAVYYCARGGETLWFGESNYGMDVWGQGTTVTVSS VL: EIVLTQSPDTLSLSPGERATLSCRASQSVSSTYLAWYQQKPGQAPSLLIYGASSRATGIPDRFSGSGSGTDFTLTISRLEPEDFAVYYCQQYGRSPLTFGGGTKVEIK : no binding
